System: horse red blood cells
Assay type: cell-based
measurement-setup: red cells of horse, 2 h
No end group written: not given here.
property: log10 HC50 (log10 of the value in µM)
// stored as log10 of HC50 expressed in µM

Examples from the recorded data:
FLPLIIGALSSKLPKIF-NH2 [Temporin-PKE-K12] : 2.09
FLPLIIGKLSSLLPKIF-NH2 [Temporin-PKE-2K] : 1.30
FLPLIIGALSSLLPKIF-NH2 [Temporin-PKE] : 0.82
FLPKIIGKLSSKLPKIF-NH2 [Temporin-PKE-4K] : 3.22

Continue with the substance presented below.
Q: What measured log10 HC50 goes with FLPKIIGKLSSLLPKIF-NH2 [Temporin-PKE-3K] ?
Ans: 1.94
